# System: C. glabrata
# PROTOCOL_NOTES: MIC
# Type: cell-based
Use MIC C. glabrata to assign classes; range list: LOW: < 0.2 µM; MEDIUM: ≥ 0.2 µM and < 0.4 µM; HIGH: ≥ 0.4 µM

CC1C=CC=CC=CC=CC=CC=CC=CC(OC2OC(C)C(O)C(N)C2O)CC2OC(O)(CC(O)CC(O)C(O)CCC(O)CC(O)CC(=O)OC(C)C(C)C1O)CC(O)C2C(=O)NCCN (stereo not shown)    HIGH
CC1C=CC=CC=CC=CC=CC=CC=CC(OC2OC(C)C(O)C(N)C2O)CC2OC(O)(CC(O)CC(O)C(O)CCC(O)CC(O)CC(=O)OC(C)C(C)C1O)CC(O)C2C(=O)NCC(C)(C)O (stereo not shown)    MEDIUM

Read the next record carefully.
# classify by MIC C. glabrata band: CC1C=CC=CC=CC=CC=CC=CC=CC(OC2OC(C)C(O)C(N)C2O)CC2OC(O)(CC(O)CC(O)C(O)CCC(O)CC(O)CC(=O)OC(C)C(C)C1O)CC(O)C2C(=O)NCCS (stereo not shown)
MEDIUM
